STUDY_SYSTEM: GTP-binding protein Rheb (Homo sapiens)
Sequence (Q15382 whole entry): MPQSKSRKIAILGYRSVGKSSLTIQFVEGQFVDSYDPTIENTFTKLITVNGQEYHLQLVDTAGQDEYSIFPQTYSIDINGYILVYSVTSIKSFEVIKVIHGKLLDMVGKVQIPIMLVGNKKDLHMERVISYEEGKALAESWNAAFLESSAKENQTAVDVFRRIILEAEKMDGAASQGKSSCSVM
Entries and their Kd
Report only the number, with the unit µM understood.

Test item `Oc1ccc(-c2ccc(O)cc2)cc1` ; GTP-binding protein Rheb (Homo sapiens); reported Kd was 1500

Now, please, on to the next compound.
GTP-binding protein Rheb (Homo sapiens) assay, compound `CC(C)(c1ccc(O)cc1)c1ccc(O)cc1` , recorded Kd = 1800
